experimental system: glucocerebrosidase (Gcase) (Homo sapiens, UniProt P04062)
Construct: micellar solution containing 10 nM GCase and 100 nM saposin C
Sequence (P04062 40-536): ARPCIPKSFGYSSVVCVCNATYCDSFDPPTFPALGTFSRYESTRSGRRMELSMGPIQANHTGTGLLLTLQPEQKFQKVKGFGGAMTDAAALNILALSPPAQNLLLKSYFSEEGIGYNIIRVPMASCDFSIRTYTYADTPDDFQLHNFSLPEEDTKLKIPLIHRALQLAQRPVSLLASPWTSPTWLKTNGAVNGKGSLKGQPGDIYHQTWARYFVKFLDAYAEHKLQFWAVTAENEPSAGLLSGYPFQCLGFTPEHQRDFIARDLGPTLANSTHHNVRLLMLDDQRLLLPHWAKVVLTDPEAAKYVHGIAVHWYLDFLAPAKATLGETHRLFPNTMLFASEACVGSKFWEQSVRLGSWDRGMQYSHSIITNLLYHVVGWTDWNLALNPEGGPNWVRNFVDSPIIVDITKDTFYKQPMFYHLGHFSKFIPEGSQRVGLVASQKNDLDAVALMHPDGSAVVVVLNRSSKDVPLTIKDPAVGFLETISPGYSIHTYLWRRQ
measurement description: Glucocerebrosidase (Gcase) activation assay, 4-methylumbelliferyl-beta-D-glucopyranoside substrate, fluorescence readout
Assay type: biochemical
study conditions: test compound at 1.0 μM; read-out: Percent Gcase Activation, 1 μM Test Compound
outcome measure: activation at 1 µM

In the examples that follow, each entry is paired with its recorded activation at 1 µM.
# molecule, activation at 1 µM
rows = [
    ("CCCCOC(=O)N1CC(NC(=O)c2ccn3c(C)cc(C)nc23)C1 [III-137]", "< 30%"),
    ("Cc1ccnc2c(C(=O)NC3(C)CCOc4c(F)cccc43)ccn12 (centres unmarked) [III-258]", "> 60%"),
    ("Cc1cc(C)n2ccc(C(=O)N[C@H]3CC[C@H](OC(C)C)CC3)c2n1 [III-106]", "> 60%"),
]

## Input What activation at 1 µM value was documented for this molecule, CCCOC1CC(CNC(=O)c2ccn3c(C)cc(C)nc23)C1 (centres unmarked) [III-239] ?
## Output < 30%

###

experimental system: glucocerebrosidase (Gcase) (Homo sapiens)
Construct: micellar solution containing 10 nM GCase and 100 nM saposin C
measurement description: Glucocerebrosidase (Gcase) activation assay, 4-methylumbelliferyl-beta-D-glucopyranoside substrate, fluorescence readout
Assay type: biochemical
study conditions: test compound at 0.1 μM; read-out: Percent Gcase Activation, 0.1 μM Test Compound
outcome measure: activation at 0.1 µM

// worked examples, activation at 0.1 µM included
# molecule, experimental system, activation at 0.1 µM
rows = [
    ("C#Cc1ccc(NC(=O)c2ccn3c(C)cc(C)nc23)c(OC)c1", "glucocerebrosidase (Gcase) (Homo sapiens)", "> 20%"),
    ("Cc1cc(Br)n2ccc(C(=O)Nc3ccc(-c4cocn4)cc3)c2n1", "glucocerebrosidase (Gcase) (Homo sapiens)", "< 10%"),
]

## Input // activation at 0.1 µM lookup, key: COCc1cc(C(C)C)nc2c(C(=O)NC3(C)CCCc4ncncc43)ccn12 (stereo not shown)
## Output < 10%

###

experimental system: glucocerebrosidase (Gcase) (Homo sapiens, UniProt P04062)
Construct: micellar solution containing 10 nM GCase and 100 nM saposin C
measurement description: Glucocerebrosidase (Gcase) activation assay, 4-methylumbelliferyl-beta-D-glucopyranoside substrate, fluorescence readout
Assay type: biochemical
study conditions: test compound at 1.0 μM; read-out: Percent Gcase Activation, 1 μM Test Compound
outcome measure: activation at 1 µM

Below: 3 compounds and their reported activation at 1 µM.
# compound, activation at 1 µM
data = [
    ("Cc1cc(C)n2ccc(C(=O)N[C@H]3CC[C@@H](OCC(C)(C)C)CC3)c2n1 [III-94]", "> 60%"),
    ("CCC(C)(NC(=O)c1ccn2c(C)cc(C)nc12)c1ccccc1 (stereo not shown) [III-287]", "> 60%"),
    ("CCCCO[C@H]1CC[C@H](NC(=O)c2ccn3c(C)cc(C)nc23)CC1 [III-26]", "> 60%"),
]

Turning now to a further compound:
## Input // query activation at 1 µM value for entry [2H]C1(NC(=O)c2ccn3c(C)cc(NC(C)=O)nc23)CCOc2ccccc21 (stereo not shown) [III-163]
## Output < 30%
